Assay: in vitro
Details: human, plasma, PPB
Provide the reported fraction unbound at 5 h of each item.
Please reply with the value in numeric form only.

Exercise: Let me know recorded fraction unbound at 5 h for Cc1c(Oc2ccc(Cl)cc2)c2c(NS(C)(=O)=O)cccc2n1CC(=O)O , thanks.
Key: 0.0374

Exercise: Let me know recorded fraction unbound at 5 h for CC(C)c1ccc(NC(=O)NCCCSC[C@H]2O[C@@H](n3cnc4c(N)ncnc43)[C@H](O)[C@@H]2O)cc1 , thanks.
Key: 0.0784

Exercise: Let me know recorded fraction unbound at 5 h for CN[C@@H](C)C(=O)N[C@H](C(=O)N[C@H]1CCCN(CCc2ccc(F)cc2)C1)C(C)(C)C , thanks.
Key: 0.0784

Exercise: Let me know recorded fraction unbound at 5 h for CCOc1cc2ncc(C(N)=O)c(Nc3cccc(Cl)c3F)c2cc1N1CCN(C)CC1 , thanks.
Key: 0.0705

Exercise: Let me know recorded fraction unbound at 5 h for CN1CCN(C2=Nc3ccccc3Nc3ccc(OS(=O)(=O)C(F)(F)F)cc32)CC1 , thanks.
Key: 0.0358

Exercise: Let me know recorded fraction unbound at 5 h for COc1ccc2c(c1)c(-c1ccnc3cc(Cl)ccc13)c(C)n2CC(=O)O , thanks.
Key: 0.0031

Exercise: Let me know recorded fraction unbound at 5 h for O=c1[nH]c([C@@H]2CCCN2)nc2c1oc1ccc(Cl)cc12 , thanks.
Key: 0.072

Exercise: Let me know recorded fraction unbound at 5 h for Cc1c(Cl)ccc(OC2CCN(C3CCN(C(=O)c4cccc(S(C)(=O)=O)c4)CC3)CC2)c1Cl , thanks.
Key: 0.035

Exercise: Let me know recorded fraction unbound at 5 h for CNC(=O)c1cc(C(=O)c2ccc(Cl)cc2)c(Br)[nH]1 , thanks.
Key: 0.0139

Exercise: Let me know recorded fraction unbound at 5 h for COc1ccnc(CCc2nc3cc(Br)cnc3[nH]2)c1 , thanks.
Key: 0.0409

Exercise: Let me know recorded fraction unbound at 5 h for CC(C)(C)NC(=O)NCCN1CCC(O)(CNC(=O)c2cc(Cl)cc(Cl)c2)CC1 , thanks.
Key: 0.232

Exercise: Let me know recorded fraction unbound at 5 h for O=C(CC(c1ccccc1)c1ccccc1)N1CCN(C(c2ccccc2)c2ccccc2)CC1 , thanks.
Key: 0.001

Exercise: Let me know recorded fraction unbound at 5 h for CC(C)Oc1cc2ncc(C(N)=O)c(Nc3ccc(F)cc3F)c2cc1N1CCN(C)CC1 , thanks.
Key: 0.0171

Exercise: Let me know recorded fraction unbound at 5 h for CC(C)C(NC(=O)c1ccccc1)C(=O)c1ccc(C#N)cc1 (stereo not given) , thanks.
Key: 0.0928

Exercise: Let me know recorded fraction unbound at 5 h for O=C(O)CCn1c2c(c3ccccc31)C[C@H](NS(=O)(=O)c1ccc(F)cc1)CC2 , thanks.
Key: 0.0274

Exercise: Let me know recorded fraction unbound at 5 h for CCN(Cc1cccc2ccccc12)c1cc(N2CCOCC2)nc(=O)[nH]1 , thanks.
Key: 0.0358

Exercise: Let me know recorded fraction unbound at 5 h for COc1cc2c(ccc(=O)n2CCN2CCC(NCc3cc4c(cn3)OCCO4)CC2)cn1 , thanks.
Key: 0.166

Exercise: Let me know recorded fraction unbound at 5 h for CN(C)CCCN1c2ccccc2Sc2ccccc21 , thanks.
Key: 0.101

Exercise: Let me know recorded fraction unbound at 5 h for N=c1c(S(=O)(=O)c2ccc(Cl)cc2)cc2c(=O)n3ccccc3nc2n1C1CCCC1 , thanks.
Key: 0.5

Exercise: Let me know recorded fraction unbound at 5 h for Cc1ccc(S(=O)(=O)Nc2c(C(=O)N[C@@H](C)C(C)(C)C)c(C)nn2C2CCC2)cc1 , thanks.
Key: 0.0183

###

Provide the reported logD of each item.
Test: physchem
Conditions: octan-1-ol/water, pH 7.4

Exercise: Let me know recorded logD for CN1Cc2ccccc2C(c2ccc(Cl)cc2)C1 (stereo not given) , thanks.
Key: 3.64

Exercise: Let me know recorded logD for NC(=O)c1cccc(O[C@H]2C[C@H]3CC[C@@H](C2)N3CC2CCCCC2)c1 , thanks.
Key: 1.55

Exercise: Let me know recorded logD for CN(C)C(=O)N[C@H]1CC[C@H](CN2[C@@H]3CC[C@H]2C[C@@H](Oc2cccc(C(N)=O)c2)C3)CC1 , thanks.
Key: -0.07

Exercise: Let me know recorded logD for CCN(CC)C(=O)c1ccc(C2=CC3(CCNCC3)Oc3cccc(O)c32)cc1 [ADL-5859] , thanks.
Key: 0.54

Exercise: Let me know recorded logD for Clc1ccc2c(c1)CCc1cccnc1C2=C1CCNCC1 [DESLORATADINE] , thanks.
Key: 1.48

###

Assay: physchem
Conditions: pH 7.4 buffer
Provide the reported log10(solubility thermodynamic) of each item.
Recorded solubility thermodynamic (log10, µM)

Exercise: Let me know recorded log10(solubility thermodynamic) for CC(=O)N1CCC(NC(=O)c2ccc(Oc3ccc(C#C[C@]4(O)CN5CCC4CC5)cc3)cc2)CC1 , thanks.
Key: 2.81

Exercise: Let me know recorded log10(solubility thermodynamic) for CS(=O)(=O)c1cccc(Nc2nccc(Nc3c(Cl)ccc4c3OCO4)n2)c1 , thanks.
Key: 1.48

Exercise: Let me know recorded log10(solubility thermodynamic) for CCCSc1nc(Oc2ccc(CC(=O)O)cc2)ccc1C(=O)NC1CCCCC1 , thanks.
Key: 2.74

Exercise: Let me know recorded log10(solubility thermodynamic) for CCN(CCO)CCCOc1cc2ncnc(Nc3ncc(CC(=O)Nc4cccc(F)c4)s3)c2cc1OC , thanks.
Key: -0.22

Exercise: Let me know recorded log10(solubility thermodynamic) for COc1cc2c(Nc3ccc(Cl)cc3F)ncnc2cc1OCCCN1CCOCC1 , thanks.
Key: 1.34

Exercise: Let me know recorded log10(solubility thermodynamic) for Oc1cccc2nc(-c3ccccc3)cc(O)c12 , thanks.
Key: 0.70

Exercise: Let me know recorded log10(solubility thermodynamic) for O=C(Nc1cc(Cl)cc2c1[nH]c1cnccc12)c1cccnc1 , thanks.
Key: 0.59

Exercise: Let me know recorded log10(solubility thermodynamic) for O=C(N[C@@H](Cc1ccc(OCCNc2nc3ccccc3[nH]2)cc1)C(=O)O)c1c(Cl)cccc1Cl , thanks.
Key: 2.51

Exercise: Let me know recorded log10(solubility thermodynamic) for O=c1cc(N2CCOCC2)oc2c(-c3ccccc3)cccc12 , thanks.
Key: 2.48

Exercise: Let me know recorded log10(solubility thermodynamic) for O=c1cc(-c2cccnc2)[nH]c2ccccc12 , thanks.
Key: 3.13

###

Provide the reported logD of each item.
Experiment: physchem
Settings: octan-1-ol/water, pH 7.4, LogD7.4
Please reply with the value in numeric form only.

Exercise: Let me know recorded logD for O=C(c1ccc(CCC(COc2ccc(-c3cccc([N+](=O)[O-])c3)cc2)N2C(=O)CCCC2=O)cc1)N1CCCC1 (stereo unspecified) , thanks.
Key: 2.31

Exercise: Let me know recorded logD for COc1ccccc1CN[C@H]1CCCN[C@H]1c1ccccc1 [CP-99994] , thanks.
Key: 1.5

Exercise: Let me know recorded logD for C[C@H]1O[C@@H](n2cnc3c(N)nc(OCC4CC(F)(F)C4(F)F)nc32)[C@H](O)[C@@H]1O (stereo partly specified) , thanks.
Key: 1.42

Exercise: Let me know recorded logD for CC(=O)CCCCn1c(=O)c2c(ncn2C)n(C)c1=O [PENTOXIFYLLINE] , thanks.
Key: 0.22

Exercise: Let me know recorded logD for NS(=O)(=O)c1ccc(Nc2nccc(Nc3c(Cl)ccc4c3OCO4)n2)cc1 , thanks.
Key: 2.7

Exercise: Let me know recorded logD for CC(=O)[C@@]1(O)CC[C@H]2[C@@H]3C[C@H](C)C4=CC(=O)C=C[C@]4(C)[C@@]3(F)[C@@H](O)C[C@@]21C [FLUOROMETHOLONE] , thanks.
Key: 2.65

Exercise: Let me know recorded logD for CC(NC(=O)C1(N)CCN(c2ncnc3[nH]ccc23)CC1)c1ccccn1 (stereo unspecified) , thanks.
Key: 1.3

Exercise: Let me know recorded logD for CCC[C@H](CO)Nc1nc(SCc2ccccc2)nc2nc(N)sc12 , thanks.
Key: 3.8

Exercise: Let me know recorded logD for COc1cc(/C=C2/SC(=O)NC2=O)cc(OC)c1O , thanks.
Key: 0.74

Exercise: Let me know recorded logD for O=C(Nc1ncc(F)s1)C(CC1CCOCC1)c1ccc(S(=O)(=O)C2CC2)cc1 (stereo unspecified) , thanks.
Key: 3.3

Exercise: Let me know recorded logD for Nc1nc(-c2ccccc2)cs1 , thanks.
Key: 2.43

Exercise: Let me know recorded logD for CCNCc1cncc(-c2ccc(F)cc2OC)n1 , thanks.
Key: 1.18

Exercise: Let me know recorded logD for CCOCc1nc2c(N)nc3ccccc3c2n1CC(C)(C)O [RESIQUIMOD] , thanks.
Key: 1.69

Exercise: Let me know recorded logD for Cc1ncc(-c2nc(Nc3ccc(C(=O)NC4CCN(C)CC4)c(F)c3)ncc2F)n1C(C)C , thanks.
Key: 2.41

Exercise: Let me know recorded logD for Cc1ccc(OCC(=O)O)c(-n2nc3ccccc3n2)c1 , thanks.
Key: -0.84

Exercise: Let me know recorded logD for Cc1c[nH]c(/C=C2\C(=O)Nc3ccccc32)c1CCC(=O)O , thanks.
Key: 1.2

Exercise: Let me know recorded logD for Cc1ccc(Cl)c(Nc2cc(Nc3ccc(OCC(O)CN(C)C)cc3)ncn2)c1 (stereo unspecified) , thanks.
Key: 2.16

Exercise: Let me know recorded logD for CCN(CCO)CCCC(C)Nc1ccnc2cc(Cl)ccc12 (stereo unspecified) [HYDROXYCHLOROQUINE] , thanks.
Key: 0.77

Exercise: Let me know recorded logD for Cc1ccc(S(=O)(=O)c2ccccc2)cc1 , thanks.
Key: 2.74

Exercise: Let me know recorded logD for CCCc1cc(Nc2nc(NCc3cc(C)no3)ncc2Br)n[nH]1 , thanks.
Key: 3.63

Exercise: Let me know recorded logD for Cc1c(-c2ccccc2)oc2c(C(=O)OCCN3CCCCC3)cccc2c1=O [FLAVOXATE] , thanks.
Key: 3.42

Exercise: Let me know recorded logD for C=CC(=O)Nc1cccc(Oc2nc(Nc3ccc(N4CCN(C)CC4)cc3OC)ncc2Cl)c1 , thanks.
Key: 3.9

Exercise: Let me know recorded logD for CCCSc1nc(NC)ccc1C(=O)N[C@H]1C2CC3CC1C[C@](O)(C3)C2 , thanks.
Key: 3.27

Exercise: Let me know recorded logD for N#Cc1ccc(F)c(-c2cc(C(F)(F)F)ccc2OCC(=O)O)c1 , thanks.
Key: -0.16

Exercise: Let me know recorded logD for CSc1ccc(OCc2ccccc2)c(/C=C/c2ccc(C(=O)O)cn2)c1 , thanks.
Key: 2.45

Exercise: Let me know recorded logD for CCN(C(=O)Cc1ccc(S(C)(=O)=O)cc1)C1CCN(CC[C@@H](c2cc(F)cc(F)c2)N2CCN(S(C)(=O)=O)CC2)CC1 , thanks.
Key: 1.25

Exercise: Let me know recorded logD for c1ccc(C2OC3(CCNCC3)c3ccccc32)cc1 (stereo unspecified) , thanks.
Key: 0.75

Exercise: Let me know recorded logD for FC(F)(F)c1nnc2ccc(N3CCCCC3)nn12 , thanks.
Key: 3

Exercise: Let me know recorded logD for CC(CNS(=O)(=O)C(C)C)c1ccc(-c2ccc(C#N)cc2)cc1 (stereo unspecified) , thanks.
Key: 3.5

Exercise: Let me know recorded logD for Nc1ncnc2c1ncn2[C@@H]1O[C@H](CSCCCNC(=O)Nc2ccccc2)[C@@H](O)[C@H]1O , thanks.
Key: 1.9

Exercise: Let me know recorded logD for CC(=O)Nc1ccc2ccn(-c3cc(NCCCN(C)C)n4ncc(C#N)c4n3)c2c1 , thanks.
Key: 1.62

Exercise: Let me know recorded logD for C[C@H](CO)Nc1nc(SCc2cccc(Cl)c2F)nc2[nH]c(=O)sc12 , thanks.
Key: 3.53

Exercise: Let me know recorded logD for Clc1cccc(-c2cnc3ccc(NC4CCOCC4)nn23)c1 , thanks.
Key: 4.3

Exercise: Let me know recorded logD for C[C@H](CO)Nc1nc(SCc2cccc(F)c2F)nc2nc(NS(C)(=O)=O)sc12 , thanks.
Key: 0.92

Exercise: Let me know recorded logD for Nc1ccc2c(c1)C(=O)C(=O)c1ccccc1-2 , thanks.
Key: 2.23

Exercise: Let me know recorded logD for Cc1cn([C@H]2CCCN([C@@H](CC(C)(C)C)c3ccc(C(=O)O)c(Oc4cccc(Br)c4)c3)C2)c(=O)[nH]c1=O , thanks.
Key: 1.12

Exercise: Let me know recorded logD for O=c1c2ccc(O)cc2ncn1-c1ccc(O)cc1 , thanks.
Key: 1.6

Exercise: Let me know recorded logD for COc1ccc(Cl)cc1NC(=O)Nc1cnccn1 , thanks.
Key: 3.63

Exercise: Let me know recorded logD for CCn1cc(C(=O)O)c(=O)c2cc(F)c(N3CCNCC3)cc21 [NORFLOXACIN] , thanks.
Key: -0.87

Exercise: Let me know recorded logD for O=C(/C=C/Sc1nc[nH]n1)c1ccc(Cl)cc1 , thanks.
Key: 3.1

Exercise: Let me know recorded logD for O=C(NC[C@@H](O)CN1CCC(Oc2ccc(Cl)c(Cl)c2)CC1)n1c(=O)[nH]c2ccccc21 , thanks.
Key: 4.46
